Test system: MS2 coat protein
Assay: apparent KD of MS2 coat protein; designed switch direction (-1 OFF switch, 1 ON switch): -1; higher = weaker reporter binding
Conditions: input ligand: none
Entries are sorted into classes by apparent KD of MS2 coat protein as follows: bin 0: < 20 nM; bin 1: ≥ 20 nM and < 100 nM; bin 2: ≥ 100 nM

Example cases with answers are listed next.
>>> assigned_class("GUCCGGCAUGUAGGAUAUGGAUCCGAUUAGGAUCCAGAAGGACAUGAGGAUCACCCAUGUACAUGUAAACAGUCAUCACCGGAC [Fiskers ExNg1 - 13] (Eterna round: R96, puzzle: Exclusion NG 1)")
"bin 0"
>>> assigned_class("UACAUGAGGAUCACCCAUGUCUUUUCGUGUAUGGUACCCAUCUAGGAUAUCGUGUUAUUUAACCACGAGAAGGAGAGUAUCAAU [MOD5 Solution 21 by JMF] (Eterna round: R96, puzzle: Exclusion NG 3)")
"bin 1"

Which apparent KD of MS2 coat protein band matches UACAAGCUUUUAAGAUCCUACAUGAGGAUCACCCAUGUGCUCGUCUUGUAACGUACUGUGACGAAAGUCACGGUACG [JL TOV1 3.22] (Eterna round: R97, puzzle: Sensor, turn-off variant 1) ? bin 2

Which apparent KD of MS2 coat protein band matches GGAUCUACUGAGGAUAUUACAUCACCCGACUGAUAAGAAGGCAGAACAUGAGGAUCACCCAUGUGGGUAGCCAA [Polaris4] (Eterna round: R97, puzzle: Exclusion 6) ? bin 1

Which apparent KD of MS2 coat protein band matches UAUUAGCAAGCGAGAUCCCACAUGAGGAUCACCCAUGUGCUCGUCUUAUAUAAGGUACUGUACGAAAGUACGGUACC [Sensor 3, v1 - 91 v6] (Eterna round: R97, puzzle: Sensor, turn-off variant 1) ? bin 0

Which apparent KD of MS2 coat protein band matches UAACUUCUUGUAAGGAUAUUGGCGCGAAAGCGAACCGAGAAGGUACAUGAGGAUCACCCAUGUGAAAUAAGAAU [Mod of Zala 14 - Jieux - Brourd's Mod of Exclusion 4] (Eterna round: R97, puzzle: Brourd's mod of Exclusion 4) ? bin 1

Which apparent KD of MS2 coat protein band matches UUUACAAGCUAUUGAUCCCACAUGAGGAUCACCCAUGUUGCUGCCGGUGACGGUAGCAUAACAAUUGCUCGUCUUAU [JL TOV1 3.56] (Eterna round: R97, puzzle: Sensor, turn-off variant 1) ? bin 2

Which apparent KD of MS2 coat protein band matches AGUCAGACGGUAGGAUAUCCAUAUCGAGUGACCCUUUCAUAACAUGAGGAUCACCCAUGUCGGUGGGAGAAGGGCCGUACGGCG [JL ViennaUCT Atra mod 5] (Eterna round: R96, puzzle: Exclusion NG 2) ? bin 2

Which apparent KD of MS2 coat protein band matches CUCAUGCCUGAGGAUAUGCUGUACAAAAGUACUGCAGAAGGCAGAACAUGAGGAUCACCCAUGUGGCGAAAGCC [Omei Ex G1] (Eterna round: R97, puzzle: Exclusion 6) ? bin 2

Which apparent KD of MS2 coat protein band matches CCCGAGUUAGGAUAUAAACCAAAGUAACCAGCAGCUUAGCUUUAGAAGGAACAUGAGGAUCACCCAUGUGGUCU [Eternabot (L2) Solution 70] (Eterna round: R97, puzzle: Exclusion 4) ? bin 2
